Recorded pIC50 by entry
# Tested on: TNF-α release in human peripheral blood mononuclear cells (PBMC)
# protocol_notes: TNF-α release
# measurement_setup: 18 h, read-out: TNF-α release assay, IC50
pIC50: −log10 of the molar value.
parameter: pIC50

[[record]]
compound_structure_string = "CC[C@H](C)OC(=O)C1(c2nc3c(OC)ccc(-c4ccc5c(c4)COC5=O)n3n2)CC1"
system_under_test = "TNF-α release in human peripheral blood mononuclear cells (PBMC)"
parameter = "pIC50"
experimental_value = 7.89

[[record]]
compound_structure_string = "CC[C@@H](C)OC(=O)C1(c2nc3c(OC)ccc(-c4ccc5c(c4)COC5=O)n3n2)CC1"
system_under_test = "TNF-α release in human peripheral blood mononuclear cells (PBMC)"
parameter = "pIC50"
experimental_value = 7.80

[[record]]
compound_structure_string = "COc1ccc(-c2ccc3c(c2)COC3=O)n2nc(C3(C(=O)OC(C)(C)C)CC3)nc12"
system_under_test = "TNF-α release in human peripheral blood mononuclear cells (PBMC)"
parameter = "pIC50"
experimental_value = 7.82


====

Reported half-life at 1 μM values are given for each entry in this list.
# protocol_notes: Human whole blood (WB) assay
# Type: in vitro ADME
# measurement_setup: pH 7.4, 1 μM compound, 37° C., average of 2 to 4 tests, read-out: WB assay, half-life T½
parameter: half-life at 1 μM (min)

[[record]]
compound_structure_string = "COc1ccc(-c2ccc3c(c2)COC3=O)n2nc(C3(C(=O)OCC(C)C)CC3)nc12"
parameter = "half-life at 1 μM"
cmp = "="
experimental_value = 16.6

[[record]]
compound_structure_string = "CC[C@H](C)OC(=O)C1(c2nc3c(OC)ccc(-c4ccc5c(c4)COC5=O)n3n2)CC1"
parameter = "half-life at 1 μM"
cmp = "="
experimental_value = 10.7

[[record]]
compound_structure_string = "COc1ccc(-c2ccc3c(c2)COC3=O)n2nc(C3(C(=O)OC(C)(C)C)CC3)nc12"
parameter = "half-life at 1 μM"
cmp = "<"
experimental_value = 11.2

[[record]]
compound_structure_string = "CC[C@@H](C)OC(=O)C1(c2nc3c(OC)ccc(-c4ccc5c(c4)COC5=O)n3n2)CC1"
parameter = "half-life at 1 μM"
cmp = "="
experimental_value = 12.6

